meta.source: PubChem BioAssay AID1159580

Experiment: chemical genetic growth profiling, strain panel (AID 1159580);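 also: tested at 20 µM; growth read once vehicle control cultures reached saturation at 30 °C; 1 = growth at the plate median or of vehicle wells; lower values mean less growth of the strain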
Settings: S. cerevisiae deletion strains, growth OD, locus YER111C, strain swi4, stronger effect = lower value
Out of some 5,500 compounds screened, about 2,000 (36%) were called active. Not shown: some 18% with an inconclusive outcome. Some of the results follow.
reported.endpoint: normalized growth

CC(C)CCCC(C)[C@H]1CCC2C3CC=C4C[C@@H](O)CC[C@]4(C)C3CC[C@@]21C (stereo partly specified): 0.985
CC(=O)O[C@@H]1C=C[C@@]2(C)C(C[C@@H](OC(C)=O)[C@@]3(C)C4=CC(=O)O[C@@H](c5ccoc5)[C@]4(C)CCC23)C1(C)C (stereo partly specified): 1
OC[C@H]1O[C@@H](O[C@@H]2[C@@H](CO)O[C@](O)(CO)[C@H]2O)[C@H](O)[C@@H](O)[C@H]1O: 1
CC1=CCCC2C1(C)CCC(C)C2(C)CC/C(C)=C/C[n+]1cn(C)c2c(N)ncnc21 (stereo unspecified): 0.984
CC(C)NCC(O)COc1ccc(COCCOC(C)C)cc1 (stereo unspecified): 1
CC(C)CCCC(C)C1CCC2C3C[C@@H](O)[C@@]4(O)C[C@@H](O)CC[C@]4(C)C3CC[C@]12C (stereo partly specified): 0.987
CC(C)(C)NCC(O)c1ccc(O)c(CO)c1 (stereo unspecified): 1.01
CC12CCC(=O)C=C1CCC1C2[C@@H](O)CC2(C)C1CC[C@]2(O)C(=O)COP(=O)(O)O (stereo partly specified): 1
CC(=O)c1ccc(O)c(CC=C(C)C)c1: 0.974
CC(=O)Nc1ccc(S(=O)(=O)Nc2onc(C)c2C)cc1: 0.975
CN(C)[C@@H]1C(=O)C(C(N)=O)=C(O)[C@@]2(O)C(=O)C3=C(O)c4c(O)ccc(Cl)c4[C@@](C)(O)[C@H]3C[C@@H]12: 0.977
CN(C)C(=O)Oc1cccc([N+](C)(C)C)c1: 1.02
Cc1cc(=O)oc2cc(O)c(O)cc12: 1.01
CC(C)CCCC(C)[C@H]1CCC2C3CC=C4CC(=O)CC[C@]4(C)C3CC[C@@]21C (stereo partly specified): 0.997
COC(=O)c1c(OC)cc2c(c1C)Oc1c(Cl)c(OC(C)=O)c(Cl)c(C)c1C(=O)O2: 0.985
C[n+]1ccccc1/C=N/O: 1
COC(=O)c1c(C)c2c(c(C)c1O)OC(=O)c1c(C)c(Cl)c(O)c(Cl)c1O2: 0.979
NC(Cn1ccc(=O)c(O)c1)C(=O)O (stereo unspecified): 1.02
N=C(N)N: 0.998
CN(C)[C@@H]1C(=O)C(C(=O)NCN2CCCC2)=C(O)[C@@]2(O)C(=O)C3=C(O)c4c(O)cccc4[C@@](C)(O)[C@H]3C[C@@H]12: 1.01
CC(C)CCCC(C)C1CCC2C3=CC[C@H]4C[C@@H](O)CC[C@]4(C)C3CC[C@@]21C (stereo partly specified): 0.977

###

Assay: chemical genetic growth profiling, strain panel (AID 1159580)
Settings: S. cerevisiae deletion strains, growth OD, locus YAL013W, strain DEP1, stronger effect = lower value
The campaign covered roughly 5,500 compounds. About 2,000 (36%) were called active. Another 18% or so got no clear call; they are omitted. The list shows a part of the results.
Some compounds, each annotated with its measured normalized growth.
reported.endpoint: normalized growth

CCCc1c(OCCCCc2nn[nH]n2)ccc(C(C)=O)c1O: 1.01
CCCCCCc1cc2c(C)cc(=O)oc2cc1O: 0.979
COC(=O)/C(=C1\OC(=O)C(c2ccccc2)=C1O)c1ccccc1: 1.01
O=C(O)c1cc(O)c2c(c1)[C@@H]([C@H]1c3cc(C(=O)O)cc(O)c3C(=O)c3c(O[C@H]4O[C@H](CO)[C@@H](O)[C@H](O)[C@H]4O)cccc31)c1cccc(O[C@H]3O[C@H](CO)[C@@H](O)[C@H](O)[C@H]3O)c1C2=O: 1.02
CC(CCc1ccccc1)NCC(O)c1ccc(O)c(C(N)=O)c1 (stereo unspecified): 1
COc1ccc(C2Sc3ccccc3N(CCN(C)C)C(=O)C2OC(C)=O)cc1 (stereo unspecified): 1
C=C1c2cccc(O)c2C(O)=C2C(=O)[C@]3(O)C(O)=C(C(N)=O)C(=O)[C@@H](N(C)C)[C@@H]3[C@@H](O)[C@H]12: 0.997
COC(=O)C/C(N)=C(\C#N)C(=O)OC: 1
NC(=O)c1ncn(C2OC(CO)C(O)C2O)c1O (stereo unspecified): 1.01
CCN1CCCC1CNC(=O)c1cc(S(N)(=O)=O)ccc1OC (stereo unspecified): 0.972
COc1ccc([C@@H]2Sc3ccccc3N(CCN(C)C)C(=O)[C@@H]2OC(C)=O)cc1: 0.989
N/C(=N/OC(=O)c1ccccc1)c1ccc(-c2csnn2)cc1: 0.998
COCc1cc(=O)n2[nH]c(C(C)(C)C)cc2n1: 1.01
CC(=O)N[C@@H](Cc1c[nH]c2ccccc12)C(=O)OCc1cc(C(F)(F)F)cc(C(F)(F)F)c1: 0.999
Nc1ncn(C2OC(CO)C(O)C2O)c(=O)n1 (stereo unspecified): 1.02
CN(C)[C@@H]1C(=O)C(C(N)=O)=C(O)[C@@]2(O)C(=O)C3=C(O)c4c(O)cccc4[C@@](C)(O)[C@H]3[C@H](O)[C@@H]12: 1.01

###

Some compounds, each annotated with its measured normalized growth.
Test: chemical genetic growth profiling, strain panel (AID 1159580);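 also: tested at 20 µM; growth read once vehicle control cultures reached saturation at 30 °C; 1 = growth at the plate median or of vehicle wells; lower values mean less growth of the strain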
Conditions: S. cerevisiae deletion strains, growth OD, locus YLR384C, strain iki3, stronger effect = lower value
Out of some 5,500 compounds screened, about 2,000 (36%) were called active. Another 18% or so got no clear call; they are omitted. This is one part of the list.
reported.endpoint: normalized growth

CC(C)CCCC(C)C1CCC2C3CC(=O)[C@H]4C[C@@H](O)CC[C@]4(C)C3CC[C@]12C (some centres not stated): 0.99
CC(=O)O[C@@H]1CC2C(C)(C)[C@H](O)C=C[C@]2(C)C2CC[C@]3(C)C(=CC(=O)O[C@H]3c3ccoc3)[C@@]21C (some centres not stated): 1
CC(C)CCCC(C)[C@H]1CCC2C3CC=C4C[C@@H](O)CC[C@]4(C)C3CC[C@@]21C (some centres not stated): 0.97
NC(=O)NC(=O)Cc1ccccc1: 0.982
CC(=O)O[C@H]1CC[C@@]2(C)C(C[C@@H](OC(C)=O)[C@@]3(C)C4=CC(=O)O[C@@H](c5ccoc5)[C@]4(C)CCC23)C1(C)C (some centres not stated): 0.987
CC(C)CCCC(C)C1CCC2C3C[C@@H](O)[C@@]4(O)C[C@@H](O)CC[C@]4(C)C3CC[C@]12C (some centres not stated): 0.979
CC(=O)O[C@@H]1CC2C(C)(C)C(=O)C=C[C@]2(C)C2CC[C@]3(C)C(=CC(=O)O[C@H]3c3ccoc3)[C@@]21C (some centres not stated): 1.02

###

Assay: chemical genetic growth profiling, strain panel (AID 1159580);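 also: tested at 20 µM; growth read once vehicle control cultures reached saturation at 30 °C; 1 = growth at the plate median or of vehicle wells; lower values mean less growth of the strain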
Conditions: S. cerevisiae deletion strains, growth OD, locus YKL048C, strain ELM1, stronger effect = lower value
Out of some 5,500 compounds screened, about 2,000 (36%) were called active. Not shown: some 18% with an inconclusive outcome. Some of the results follow.
reported.endpoint: normalized growth

Cc1ccc2nc(-c3ccc4c(c3)OCCO4)cn2c1: 0.959
O=C(Nc1ccc(F)cc1F)c1cc(Cl)c(-n2cccc2)c(Cl)c1: 0.953
Brc1ccc(-c2csc(-c3ccncc3)n2)cc1: 0.889
CSc1sc(C(=O)Sc2ccccc2)cc1S(=O)(=O)C(C)C: 0.953
NC(=S)N/N=C1/CCCc2ccccc21: 0.781
O=C1c2cccc3c(Sc4ccccc4)ccc(c23)C(=O)N1NCCO: 0.831

###

Assay: chemical genetic growth profiling, strain panel (AID 1159580);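 also: tested at 20 µM; growth read once vehicle control cultures reached saturation at 30 °C; 1 = growth at the plate median or of vehicle wells; lower values mean less growth of the strain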
Details: S. cerevisiae deletion strains, growth OD, locus YGL167C, strain pmr1, stronger effect = lower value
Among all 5,500 compounds or so, about 2,000 (36%) were called active. About 18% were inconclusive and are not listed. The list shows a part of the results.
reported.endpoint: normalized growth

CC[N+](C)(C)c1cccc(O)c1: 1.01
CCCOc1ccc2nc(NC(=O)OC)[nH]c2c1: 1.01
CC(C)CCCC(C)C1CCC2C3CC(=O)[C@H]4C[C@@H](O)CC[C@]4(C)C3CC[C@]12C (stereo partly drawn): 0.998
CC(C)CCCC(C)C1CCC2C3C[C@@H](O)[C@@]4(O)C[C@@H](O)CC[C@]4(C)C3CC[C@]12C (stereo partly drawn): 1
C=C1c2c(Cl)ccc(O)c2C(O)=C2C(=O)[C@]3(O)C(O)=C(C(N)=O)C(=O)[C@@H](N(C)C)[C@@H]3[C@@H](O)[C@H]12: 0.971
CC(C)CCCC(C)[C@H]1CCC2C3CC=C4C[C@@H](O)CC[C@]4(C)C3CC[C@@]21C (stereo partly drawn): 0.99
Nc1ccc(C(=O)O)cc1: 1.02
CC(C)CCCC(C)C1CCC2C3=CC[C@H]4C[C@@H](O)CC[C@]4(C)C3CC[C@@]21C (stereo partly drawn): 0.98
